Assay: NCI Yeast Anticancer Drug Screen. Data for the sgs1 mgt1 strain (AID 161);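 note: 0% = growth of cultures given vehicle only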
Settings: S. cerevisiae sgs1 mgt1 strain, at 50.0 µM, stronger effect = higher value
The panel holds about 79,000 compounds, 15% with a hit somewhere; the sample as a whole holds those more often.
readoutLabel: growth inhibition (%)
Provide the reading as a plain figure in %.

Provide measured growth inhibition value, entry: [Cl][Pt+2][Cl].[NH-]c1ccc([N+](=O)[O-])cc1[NH-]
75.5

Provide measured growth inhibition value, entry: CC(C)c1ccccc1OP(=S)(S)Oc1ccccc1C(C)C
72.8

Provide measured growth inhibition value, entry: S=C=NCc1ccccc1
20.4

Provide measured growth inhibition value, entry: N.O=S(=O)(O)O.[Al]
4.85
